This listing pairs compounds with measured Potency.
Assay: Identification of antibody-drug conjugate (ADC) payloads which are substrates of ATP-binding cassette drug efflux transporters: ABCB1-HeLa-KB-8-5-11 cell line
Conditions: KB-8-5-11 (P-gp overexpressing HeLa) viability, CellTiter-Glo, 48 h
Results filed as inconclusive are left out. The source made the active and inactive calls. Calls come from the whole dose curve; as a rule, active = well fitted inhibition curve with a large enough effect; inconclusive = small, poorly fitted or top-dose-only effect; inactive = flat fitted curve, though single readings scatter. Square brackets hold non-standard residues; d marks the D form. Peptide text beside a SMILES is read from it. * marks the point of attachment. Dolaproine = CO[C@@H]([C@@H]1CCCN1)[C@@H](C)C(=O)O; Dil = CC[C@H](C)[C@H](NC)[C@@H](CC(=O)O)OC; NMe2Val = CC(C)[C@@H](C(=O)*)N(C)C

Consider the following illustrative entries.
INPUT: Returns the measured Potency for the input compound. Input: `CC[C@H](C)[C@H](NC(=O)[C@H]1CCCCN1C)C(=O)N(C)[C@H](C[C@@H](OC(C)=O)c1nc(C(=O)O)cs1)C(C)C`
OUTPUT: 4200 nM (active)

INPUT: Returns the measured Potency for the input compound. Input: CC[C@H](C)[C@@H]1NC(=O)CNC(=O)[C@H]2Cc3c([nH]c4cc(O)ccc34)S(=O)C[C@H](NC(=O)CNC1=O)C(=O)N[C@@H](CC(N)=O)C(=O)N1C[C@H](O)C[C@H]1C(=O)N[C@@H]([C@@H](C)[C@@H](O)CO)C(=O)N2 (stereo not given in full)
OUTPUT: 4720 nM (active)

INPUT: Returns the measured Potency for the input compound. Input: COc1cc2cc(c1Cl)N(C)C(=O)C[C@H](OC(=O)[C@H](C)N(C)C(=O)CCC(C)(C)S)[C@]1(C)OC1[C@H](C)C1C[C@@](O)(NC(=O)O1)[C@H](OC)/C=C/C=C(\C)C2 (stereo not given in full)
OUTPUT: 26.5 nM (active)

INPUT: Returns the measured Potency for the input compound. Input: `CC[C@H](C)[C@H](NC(=O)[C@H]1CCCCN1C)C(=O)N(C)[C@H](C[C@@H](OC(C)=O)c1nc(C(=O)N[C@@H](Cc2ccccc2)C[C@H](C)C(=O)O)cs1)C(C)C`
OUTPUT: 10.6 nM (active)

With those in mind, consider the next compound.
INPUT: Returns the measured Potency for the input compound. Input: CC[C@H](C)[C@@H]([C@@H](CC(=O)N1CCC[C@H]1[C@H](OC)[C@@H](C)C(=O)N[C@@H](Cc1ccccc1)C(=O)O)OC)N(C)C(=O)[C@@H](NC(=O)[C@H](C(C)C)N(C)C)C(C)C (NMe2Val-V[Dil][Dolaproine]F-OH)
OUTPUT: 265 nM (active)
